Please respond with reported kcat for every item in the list.
B1: glmS ribozyme (parent)
chain: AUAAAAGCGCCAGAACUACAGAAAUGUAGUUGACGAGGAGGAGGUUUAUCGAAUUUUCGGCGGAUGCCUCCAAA

Variants of: B1
assay_info: kcat; higher = faster cleavage; RNA array
cond: with glucosamine-6-phosphate
This sample holds only a part of the variants without activity.

Example entries and their recorded answers appear below.
A14C U46C: 0.000346 s⁻¹
G29A C70G: 6.2e-05 s⁻¹

State recorded kcat for all listed variants.
1. G32C G60A
2. U55C C71A
3. A6U C67A
4. U31C U55G
5. A6U C58U C70G
6. U56A A64U

Solution:
1. < 1e-05 s⁻¹
2. 0.000398 s⁻¹
3. 7.39e-05 s⁻¹
4. 0.0059 s⁻¹
5. 1.51e-05 s⁻¹
6. 5.11e-05 s⁻¹
